Values from ChEMBL document CHEMBL1641373

Quick reference: Ki of the listed items.
- Target or system: Sodium-dependent dopamine transporter (Homo sapiens, UniProt Q01959)
- Sequence (Q01959 whole entry): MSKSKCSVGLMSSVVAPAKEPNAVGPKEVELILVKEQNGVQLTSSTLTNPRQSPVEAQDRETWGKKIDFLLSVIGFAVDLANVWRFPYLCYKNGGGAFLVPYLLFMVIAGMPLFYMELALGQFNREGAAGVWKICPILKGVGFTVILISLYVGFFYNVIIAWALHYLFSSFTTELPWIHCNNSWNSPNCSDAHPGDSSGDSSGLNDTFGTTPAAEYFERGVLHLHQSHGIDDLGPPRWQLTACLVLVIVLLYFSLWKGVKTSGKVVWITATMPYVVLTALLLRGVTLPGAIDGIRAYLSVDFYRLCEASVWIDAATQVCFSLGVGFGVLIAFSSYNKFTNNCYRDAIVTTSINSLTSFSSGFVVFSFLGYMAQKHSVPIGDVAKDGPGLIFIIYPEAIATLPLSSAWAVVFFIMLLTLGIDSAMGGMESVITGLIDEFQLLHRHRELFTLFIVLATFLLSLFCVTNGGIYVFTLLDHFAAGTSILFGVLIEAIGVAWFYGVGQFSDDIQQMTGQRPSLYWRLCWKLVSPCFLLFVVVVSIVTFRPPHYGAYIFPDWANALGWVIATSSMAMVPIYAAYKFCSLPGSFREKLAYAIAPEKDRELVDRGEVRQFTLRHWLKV
- Experimental details: Displacement of [3H]WIN-35428 form human DAT expressed in HEK cell membranes
- Set-up: species or system HEK293
# unit: nM | format: bare number

Compound: CN(CCc1cccc(F)c1)[C@H]1C2C3CC4C5C3CC2C5C41 (some centres undefined)
Assay value: 101
//
Compound: Fc1cccc(CN[C@H]2C3C4CC5C6C4CC3C6C52)c1 (some centres undefined)
Assay value: 3440
//
Compound: CN(Cc1cccc(F)c1)[C@H]1C2C3CC4C5C3CC2C5C41 (some centres undefined)
Assay value: 1.2

# context switch: different compound, same Ki
Q) Fill blank: measured Ki of the compound Fc1cccc(CCN[C@H]2C3C4CC5C6C4CC3C6C52)c1 (some centres undefined) is ____.
A) 1680

* * *

- Target or system: Muscarinic acetylcholine receptor M4 (Homo sapiens, UniProt P08173)
- Sequence (P08173 whole entry): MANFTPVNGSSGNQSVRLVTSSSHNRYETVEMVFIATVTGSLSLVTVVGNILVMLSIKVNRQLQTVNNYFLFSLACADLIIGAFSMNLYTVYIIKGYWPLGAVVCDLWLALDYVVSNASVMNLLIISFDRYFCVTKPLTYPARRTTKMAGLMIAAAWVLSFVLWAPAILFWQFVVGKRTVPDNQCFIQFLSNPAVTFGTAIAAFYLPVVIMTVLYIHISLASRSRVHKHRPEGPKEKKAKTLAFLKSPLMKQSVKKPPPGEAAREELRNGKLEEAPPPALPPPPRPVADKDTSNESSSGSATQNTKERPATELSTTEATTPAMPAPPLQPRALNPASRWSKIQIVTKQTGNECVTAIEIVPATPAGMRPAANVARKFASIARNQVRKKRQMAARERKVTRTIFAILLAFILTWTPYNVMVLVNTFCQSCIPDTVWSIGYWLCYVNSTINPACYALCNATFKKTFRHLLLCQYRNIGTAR
Measurement kind: Ki (nM)
# unit: nM | format: bare number

Q) Fill blank: measured Ki of the compound Fc1cccc(CCN[C@H]2C3C4CC5C6C4CC3C6C52)c1 (stereo partly specified) is ____.
A) 705

* * *

- Target or system: UniProtKB P35367
- Sequence (P35367 whole entry): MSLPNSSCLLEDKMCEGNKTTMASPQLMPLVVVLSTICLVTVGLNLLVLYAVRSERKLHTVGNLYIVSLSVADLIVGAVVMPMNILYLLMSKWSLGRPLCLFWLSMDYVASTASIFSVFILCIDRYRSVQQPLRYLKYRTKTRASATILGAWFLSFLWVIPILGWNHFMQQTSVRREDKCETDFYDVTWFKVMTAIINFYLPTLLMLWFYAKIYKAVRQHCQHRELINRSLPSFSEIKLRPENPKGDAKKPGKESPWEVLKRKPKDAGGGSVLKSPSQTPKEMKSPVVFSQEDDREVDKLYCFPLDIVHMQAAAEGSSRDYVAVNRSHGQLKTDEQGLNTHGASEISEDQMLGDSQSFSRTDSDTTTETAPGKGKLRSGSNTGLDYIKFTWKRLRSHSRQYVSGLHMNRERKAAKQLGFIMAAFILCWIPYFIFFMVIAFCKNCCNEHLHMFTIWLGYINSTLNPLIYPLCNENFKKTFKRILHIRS
Measurement kind: Ki (nM)
# unit: nM | format: bare number

Q) Checklist item: Ki tested on UniProtKB P35367, entry Fc1cccc(CCN[C@H]2C3C4CC5C6C4CC3C6C52)c1 (stereo partly specified) , value?
A) 2380

* * *

- Target or system: Mu-type opioid receptor (Homo sapiens) (UniProt P35372)
- Sequence (P35372 whole entry): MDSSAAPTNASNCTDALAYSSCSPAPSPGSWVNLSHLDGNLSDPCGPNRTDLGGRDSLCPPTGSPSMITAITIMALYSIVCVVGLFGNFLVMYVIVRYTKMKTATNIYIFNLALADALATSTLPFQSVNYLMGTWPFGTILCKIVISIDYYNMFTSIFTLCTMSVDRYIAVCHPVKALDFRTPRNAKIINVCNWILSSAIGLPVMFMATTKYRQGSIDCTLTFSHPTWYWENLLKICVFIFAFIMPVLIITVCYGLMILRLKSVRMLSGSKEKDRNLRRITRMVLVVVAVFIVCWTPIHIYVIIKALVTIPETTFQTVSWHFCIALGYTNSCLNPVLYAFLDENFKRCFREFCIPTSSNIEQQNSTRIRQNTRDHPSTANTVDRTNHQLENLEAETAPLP
- Experimental details: Inhibition of mu opioid receptor at 10 uM
Quick reference: inhibition of the listed items.

The cases that follow already have their inhibition on record.
Compound: Fc1cccc(CCN[C@H]2C3C4CC5C6C4CC3C6C52)c1 (some centres undefined)
inhibition: < 50%

Compound: CN(Cc1cccc(F)c1)[C@H]1C2C3CC4C5C3CC2C5C41 (some centres undefined)
inhibition: < 50%

Compound: CN(CCc1cccc(F)c1)[C@H]1C2C3CC4C5C3CC2C5C41 (some centres undefined)
inhibition: < 50%

# context switch: different compound, same inhibition
Q) Fill blank: measured inhibition of the compound Fc1cccc(CN[C@H]2C3C4CC5C6C4CC3C6C52)c1 (some centres undefined) is ____.
A) < 50%

* * *

Quick reference: Ki of the listed items.
- Target or system: Histamine H2 receptor (Homo sapiens)
- Sequence (P25021 whole entry): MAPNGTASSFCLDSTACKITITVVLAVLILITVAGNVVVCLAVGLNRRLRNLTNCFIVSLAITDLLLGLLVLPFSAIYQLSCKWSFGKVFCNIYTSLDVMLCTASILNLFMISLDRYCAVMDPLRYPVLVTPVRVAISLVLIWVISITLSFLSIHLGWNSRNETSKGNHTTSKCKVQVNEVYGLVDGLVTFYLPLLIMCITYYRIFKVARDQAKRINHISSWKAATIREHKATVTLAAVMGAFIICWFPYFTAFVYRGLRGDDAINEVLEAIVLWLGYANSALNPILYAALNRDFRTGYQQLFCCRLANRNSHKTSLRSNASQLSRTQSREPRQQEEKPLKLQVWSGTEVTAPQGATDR
# unit: µM | format: bare number

Q) Fill blank: measured Ki of the molecule Fc1cccc(CN[C@H]2C3C4CC5C6C4CC3C6C52)c1 (stereo partly drawn) is ____.
A) 2.15

Q) Fill blank: measured Ki of the molecule CN(CCc1cccc(F)c1)[C@H]1C2C3CC4C5C3CC2C5C41 (stereo partly drawn) is ____.
A) 4.45

Q) Fill blank: measured Ki of the molecule Fc1cccc(CCN[C@H]2C3C4CC5C6C4CC3C6C52)c1 (stereo partly drawn) is ____.
A) 4.42

* * *

Quick reference: inhibition of the listed items.
- Target or system: Histamine H3 receptor (Homo sapiens)
- Experimental details: Inhibition of H3 receptor at 10 uM

The cases that follow already have their inhibition on record.
Molecule: Fc1cccc(CN[C@H]2C3C4CC5C6C4CC3C6C52)c1 (some centres undefined)
inhibition: < 50%
//
Molecule: Fc1cccc(CCN[C@H]2C3C4CC5C6C4CC3C6C52)c1 (some centres undefined)
inhibition: < 50%

Q) Fill blank: measured inhibition of the molecule CN(Cc1cccc(F)c1)[C@H]1C2C3CC4C5C3CC2C5C41 (some centres undefined) is ____.
A) < 50%

Q) Fill blank: measured inhibition of the molecule CN(CCc1cccc(F)c1)[C@H]1C2C3CC4C5C3CC2C5C41 (some centres undefined) is ____.
A) < 50%

* * *

Quick reference: Ki of the listed items.
- Target or system: Sodium-dependent serotonin transporter (Homo sapiens, UniProt P31645)
- Sequence (P31645 whole entry): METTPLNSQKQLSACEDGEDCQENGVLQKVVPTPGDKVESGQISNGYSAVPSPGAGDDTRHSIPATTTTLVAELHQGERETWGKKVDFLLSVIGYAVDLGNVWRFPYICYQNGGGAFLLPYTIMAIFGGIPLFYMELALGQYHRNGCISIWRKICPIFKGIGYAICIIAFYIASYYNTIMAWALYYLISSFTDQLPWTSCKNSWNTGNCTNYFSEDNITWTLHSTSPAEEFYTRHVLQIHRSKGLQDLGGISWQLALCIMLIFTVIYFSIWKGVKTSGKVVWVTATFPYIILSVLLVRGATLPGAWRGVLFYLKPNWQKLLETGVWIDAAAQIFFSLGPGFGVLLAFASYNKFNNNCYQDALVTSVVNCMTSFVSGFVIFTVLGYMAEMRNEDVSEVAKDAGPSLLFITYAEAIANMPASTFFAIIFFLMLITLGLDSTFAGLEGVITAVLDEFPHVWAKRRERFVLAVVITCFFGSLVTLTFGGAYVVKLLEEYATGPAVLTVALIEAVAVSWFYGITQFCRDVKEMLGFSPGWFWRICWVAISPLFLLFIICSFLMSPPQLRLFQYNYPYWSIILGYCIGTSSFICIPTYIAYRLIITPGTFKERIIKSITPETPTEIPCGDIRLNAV
- Experimental details: Displacement of [3H]citalopram from human SERT expressed in HEK cells
- Type: cell-based, HEK293

Compound: Fc1cccc(CN[C@H]2C3C4CC5C6C4CC3C6C52)c1 (some centres not stated)
Target or system: Sodium-dependent serotonin transporter (Homo sapiens, UniProt P31645)
Ki: > 10 µM

# context switch: different compound, same Ki
Q) Fill blank: measured Ki of the compound Fc1cccc(CCN[C@H]2C3C4CC5C6C4CC3C6C52)c1 (some centres not stated) is ____.
A) > 10 µM

* * *

- Target or system: 5-hydroxytryptamine receptor 2B (Homo sapiens)
- Sequence (P41595 whole entry): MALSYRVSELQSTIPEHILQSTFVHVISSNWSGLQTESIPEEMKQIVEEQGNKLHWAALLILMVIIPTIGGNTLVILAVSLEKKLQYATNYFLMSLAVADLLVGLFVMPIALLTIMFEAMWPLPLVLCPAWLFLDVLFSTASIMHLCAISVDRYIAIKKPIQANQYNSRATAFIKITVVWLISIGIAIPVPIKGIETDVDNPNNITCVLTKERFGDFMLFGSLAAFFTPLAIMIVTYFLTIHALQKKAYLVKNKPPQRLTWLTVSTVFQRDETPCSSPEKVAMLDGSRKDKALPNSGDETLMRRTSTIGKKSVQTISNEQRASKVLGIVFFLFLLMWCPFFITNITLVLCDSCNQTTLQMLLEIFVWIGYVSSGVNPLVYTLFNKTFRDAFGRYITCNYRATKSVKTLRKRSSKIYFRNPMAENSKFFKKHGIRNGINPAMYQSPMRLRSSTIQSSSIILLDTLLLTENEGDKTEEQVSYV
Measurement kind: Ki (µM)
# unit: µM | format: bare number

Compound: Fc1cccc(CCN[C@H]2C3C4CC5C6C4CC3C6C52)c1 (some centres not stated)
Units label: µM
Ki: 6.98

Q) Checklist item: Ki tested on 5-hydroxytryptamine receptor 2B (Homo sapiens), entry CN(CCc1cccc(F)c1)[C@H]1C2C3CC4C5C3CC2C5C41 (some centres not stated) , value?
A) 6.09

* * *

- Target or system: Muscarinic acetylcholine receptor M2 (Homo sapiens)
- Sequence (P08172 whole entry): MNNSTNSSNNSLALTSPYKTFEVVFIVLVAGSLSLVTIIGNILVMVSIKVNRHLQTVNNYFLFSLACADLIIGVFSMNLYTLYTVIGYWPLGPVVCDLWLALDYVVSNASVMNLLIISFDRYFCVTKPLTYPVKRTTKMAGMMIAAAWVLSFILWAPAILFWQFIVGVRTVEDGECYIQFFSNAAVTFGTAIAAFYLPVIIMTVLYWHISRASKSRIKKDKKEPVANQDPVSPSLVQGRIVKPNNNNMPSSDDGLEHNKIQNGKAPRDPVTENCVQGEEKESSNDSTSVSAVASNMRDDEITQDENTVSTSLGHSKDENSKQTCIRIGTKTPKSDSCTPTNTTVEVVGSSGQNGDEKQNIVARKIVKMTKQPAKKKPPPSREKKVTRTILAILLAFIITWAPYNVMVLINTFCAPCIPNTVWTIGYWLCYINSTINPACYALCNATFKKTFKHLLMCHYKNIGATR
Measurement kind: Ki (nM)
# unit: nM | format: bare number

Q) Fill blank: measured Ki of the compound Fc1cccc(CCN[C@H]2C3C4CC5C6C4CC3C6C52)c1 (stereo partly specified) is ____.
A) 2290

* * *

- Target or system: UniProtKB P31645
Measurement kind: pIC50
Note on pIC50: it is the negative log10 of concentration, concentration in mol/L.

Q) Checklist item: pIC50 tested on UniProtKB P31645, entry `CN1[C@H]2CC[C@@H]1[C@@H](C(=O)N1CCCC1)[C@@H](c1ccc(I)cc1)C2` , value?
A) 6.00

* * *

Quick reference: pKi of the listed items.
- Target or system: UniProt:P31645
- Experimental details: Inhibition of SERT
Note on pKi: it is the negative log10 of concentration, concentration in mol/L.

Entry smiles: COC(=O)[C@H]1[C@@H](c2ccc(C)cc2)C[C@H]2CC[C@@H]1N2C/C=C/I
pKi: 6.30

# context switch: different compound, same pKi
Q) Fill blank: measured pKi of the compound `CN(C)C[C@H]1C2CCC(CC2)[C@H]1c1ccc(Cl)c(Cl)c1` is ____.
A) 7.24

* * *

- Target or system: 5-hydroxytryptamine receptor 6 (Homo sapiens)
- Sequence (P50406 whole entry): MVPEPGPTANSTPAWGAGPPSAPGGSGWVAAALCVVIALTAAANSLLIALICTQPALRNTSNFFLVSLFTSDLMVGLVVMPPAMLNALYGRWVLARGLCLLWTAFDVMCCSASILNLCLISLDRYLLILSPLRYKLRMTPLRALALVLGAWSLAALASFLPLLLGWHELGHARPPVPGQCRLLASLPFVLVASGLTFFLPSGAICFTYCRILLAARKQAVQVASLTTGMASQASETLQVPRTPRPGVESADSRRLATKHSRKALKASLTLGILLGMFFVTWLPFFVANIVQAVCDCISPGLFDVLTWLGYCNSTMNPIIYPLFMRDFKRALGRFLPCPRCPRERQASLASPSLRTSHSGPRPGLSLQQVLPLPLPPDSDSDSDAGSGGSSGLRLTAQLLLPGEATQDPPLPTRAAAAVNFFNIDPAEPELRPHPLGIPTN
Measurement kind: Ki

Q) Fill blank: measured Ki of the molecule Fc1cccc(CCN[C@H]2C3C4CC5C6C4CC3C6C52)c1 (stereo partly specified) is ____.
A) > 10 µM

* * *

- Target or system: Sigma non-opioid intracellular receptor 1 (Rattus norvegicus, UniProt Q9R0C9)
- Sequence (Q9R0C9 whole entry): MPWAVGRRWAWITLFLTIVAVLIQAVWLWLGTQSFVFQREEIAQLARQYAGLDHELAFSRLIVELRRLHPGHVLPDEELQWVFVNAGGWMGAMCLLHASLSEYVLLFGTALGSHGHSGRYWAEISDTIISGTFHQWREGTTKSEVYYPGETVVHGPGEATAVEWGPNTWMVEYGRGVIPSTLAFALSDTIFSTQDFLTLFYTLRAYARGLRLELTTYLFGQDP
- Experimental details: Displacement of (+)-[3H]pentazocine from sigma 1 receptor in rat PC12 cells
Quick reference: Ki of the listed items.
# unit: nM | format: bare number

The cases that follow already have their Ki on record.
Compound: Fc1cccc(CCN[C@H]2C3C4CC5C6C4CC3C6C52)c1 (some centres undefined)
Target or system: Sigma non-opioid intracellular receptor 1 (Rattus norvegicus, UniProt Q9R0C9)
Ki, nM: 19

Compound: CN(CCc1cccc(F)c1)[C@H]1C2C3CC4C5C3CC2C5C41 (some centres undefined)
Target or system: Sigma non-opioid intracellular receptor 1 (Rattus norvegicus, UniProt Q9R0C9)
Ki, nM: 1160

Compound: CN(Cc1cccc(F)c1)[C@H]1C2C3CC4C5C3CC2C5C41 (some centres undefined)
Target or system: Sigma non-opioid intracellular receptor 1 (Rattus norvegicus, UniProt Q9R0C9)
Ki, nM: 1570

Q) Fill blank: measured Ki of the compound Fc1cccc(CN[C@H]2C3C4CC5C6C4CC3C6C52)c1 (some centres undefined) is ____.
A) 198
